- tested-on: CXCR7 (Homo sapiens)
- test: PathHunter CHO-K1 CXCR7 b-arrestin recruitment assay (CXCR7 agonistic activity)
- measurement-parameters: PathHunter CHO-K1 CXCR7 b-arrestin cell line
value-type: log10 EC50 (log10 of the value in nM)

compound | value-type | endpoint-value
CNCCN(Cc1ncccc1C(F)(F)F)C(=O)CNc1cccc2c1CCN(CC1CC1)C2 | log10 EC50 | 0.70
COCCN1CCc2c(CCC(=O)N(CCC(C)(C)O)Cc3ccccc3C(F)(F)F)cccc2C1 | log10 EC50 | 2.64
CNCCN(Cc1ccccc1C(F)(F)F)C(=O)CNc1cccc2c1CCN(C(=O)C1CCOC1)C2 (racemic) | log10 EC50 | 1.48
CC1c2cccc(NCC(=O)N(CCN(C)C)Cc3ccccc3C(F)(F)F)c2CCN1CC1CC1 (racemic) [Example 211] | log10 EC50 | 0.30
CC(C)(O)CN(Cc1ncccc1Cl)C(=O)CNc1cccc2c1CN(CC1CC1)CC2 | log10 EC50 | 2.00
CCN1Cc2c(NCC(=O)N(CCN(C)C)Cc3ccccc3Cl)cccc2C(C)(C)C1 | log10 EC50 | 2.42
CC(C)CN1CCc2cccc(NCC(=O)N(CCN(C)C)Cc3ccccc3)c2C1 | log10 EC50 | 1.57
CNCCN(Cc1ccccc1C(F)(F)F)C(=O)CNc1cccc2c1CCN(C(=O)OCCF)C2 | log10 EC50 | 1.49
CN(C)CCN(Cc1ccccc1)C(=O)CCc1cccc2c1CCN(CC1CC1)C2 | log10 EC50 | 0.60
CN(C)CCN(Cc1ccccc1C(F)(F)F)C(=O)C1(Nc2cccc3c2CCN(CC2CC2)C3)CC1 | log10 EC50 | 2.01
CCN1CCc2c(cccc2NCC(=O)N(CCN(C)C)Cc2ccccc2Cl)C1 | log10 EC50 | 1.30
C=CCN1CCc2cccc(CCC(=O)N(CCN(C)C)Cc3ccccc3C(F)(F)F)c2C1 | log10 EC50 | 1.00
CCC(C)N1CCc2c(cccc2NCC(=O)N(CCN(C)C)Cc2ccccc2C(F)(F)F)C1 (racemic) | log10 EC50 | 0.78
CCS(=O)(=O)N1CCc2c(cccc2NCC(=O)N(CCN(C)C)Cc2ccccc2C(F)(F)F)C1 | log10 EC50 | 1.99
O=C(CNc1cccc2c1CN(CC1CC1)CC2)N(CCN1CCCC(F)(F)C1)Cc1ncccc1C(F)(F)F | log10 EC50 | 1.45
COCCN1CCc2c(cccc2NCC(=O)N(CCN2CCC(F)(F)CC2)Cc2ncccc2C(F)(F)F)C1 | log10 EC50 | 1.98

----------
- tested-on: CXCR7 (Homo sapiens, UniProt P25106)
- Sequence (P25106 whole entry): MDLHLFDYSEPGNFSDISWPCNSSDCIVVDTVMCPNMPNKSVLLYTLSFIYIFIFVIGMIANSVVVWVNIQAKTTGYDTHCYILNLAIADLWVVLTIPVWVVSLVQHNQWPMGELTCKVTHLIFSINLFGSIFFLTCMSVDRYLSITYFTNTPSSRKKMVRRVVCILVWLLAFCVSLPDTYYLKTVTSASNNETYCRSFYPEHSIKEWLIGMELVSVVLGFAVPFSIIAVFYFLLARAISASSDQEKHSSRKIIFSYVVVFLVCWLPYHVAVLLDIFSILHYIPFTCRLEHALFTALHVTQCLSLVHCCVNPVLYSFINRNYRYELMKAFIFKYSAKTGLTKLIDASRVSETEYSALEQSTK
- Sequence (P32121 whole entry partner): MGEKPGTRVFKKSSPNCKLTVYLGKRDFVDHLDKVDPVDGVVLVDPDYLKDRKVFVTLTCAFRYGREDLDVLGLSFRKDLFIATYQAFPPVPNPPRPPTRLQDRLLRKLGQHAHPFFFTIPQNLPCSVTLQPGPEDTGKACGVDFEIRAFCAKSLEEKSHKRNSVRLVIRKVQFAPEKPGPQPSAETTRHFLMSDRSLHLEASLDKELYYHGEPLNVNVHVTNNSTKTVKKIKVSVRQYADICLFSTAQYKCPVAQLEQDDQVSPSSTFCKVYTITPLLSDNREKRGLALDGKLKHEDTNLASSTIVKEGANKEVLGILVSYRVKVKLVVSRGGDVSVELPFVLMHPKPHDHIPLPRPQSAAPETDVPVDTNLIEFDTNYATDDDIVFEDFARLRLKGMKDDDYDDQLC
- test: PathHunter CHO-K1 CXCR7 b-arrestin recruitment assay (CXCR7 agonistic activity)
- measurement-parameters: PathHunter CHO-K1 CXCR7 b-arrestin cell line
Mark each entry criterion met if its EC50 sits below 0.06 µM, and criterion not met for all others.

compound | assigned-class
CCN1CCc2cccc(NCC(=O)N(CCN(C)C)Cc3c(F)cccc3F)c2C1 | criterion met
CNCCN(Cc1ccccc1C(F)(F)F)C(=O)CNc1cccc2c1CCN(C(=O)OCC(C)(C)C)C2 | criterion not met
CN(C)CCN(Cc1ccccc1C(F)(F)F)C(=O)CNc1cccc2c1CCN(c1ccccc1)C2 | criterion not met
CN(C)CCN(Cc1ccccc1)C(=O)CNc1cccc2c1CCN(CC1CCCCC1)C2 | criterion met
CC(C)(C)OC(=O)N1[C@H](CN(Cc2ccccc2C(F)(F)F)C(=O)CNc2cccc3c2CCN(CC2CC2)C3)COC1(C)C | criterion not met
CNCCN(Cc1ccccc1C(F)(F)F)C(=O)CNc1cccc2c1CCN(CC1CC1)C2 | criterion met
O=C(CNc1cccc2c1CCN(CC1CC1)C2)N(CCN1CCCC1)Cc1ccccc1 | criterion met
CN1CCC(N(Cc2ccccc2C(F)(F)F)C(=O)CNc2cccc3c2CN(CC2CC2)CC3(C)C)CC1 | criterion not met
CN(C)CCN(Cc1ccccc1C(F)(F)F)C(=O)CNc1cccc2c1CN(S(C)(=O)=O)CC2 | criterion met
CNCCN(Cc1ncccc1C(F)(F)F)C(=O)CNc1cccc2c1CCN(C(=O)COC)C2 | criterion met
O=C(CNc1cccc2c1CN(CC1CC1)CC2)N(CCN1CCCC(F)(F)C1)Cc1ccccc1C(F)(F)F | criterion not met
CN1CCC(N(Cc2ccccc2C(F)(F)F)C(=O)CCc2cccc3c2CCN(C(=O)OC(C)(C)C)C3)CC1 | criterion not met
CN(C)CCN(Cc1ccccc1)C(=O)CNc1cccc2c1CCN(C(=O)OC(C)(C)C)C2 | criterion not met
CCN1CCc2cccc(OC(C)C(=O)N(CCN(C)C)Cc3ccccc3C(F)(F)F)c2C1 (stereo not shown) | criterion not met
C#CCOC(=O)N1CCc2c(cccc2NCC(=O)N(CCNC)Cc2ccccc2C(F)(F)F)C1 | criterion met
O=C(CNc1cccc2c1CCN(CC1CC1)C2)N(CCN1CCCC1)Cc1ccccc1Cl | criterion met
CCN1CCc2cccc(NCC(=O)N(CCN(C)C)Cc3ccccc3F)c2C1 | criterion met
CCN1CCc2c(/C=C/C(=O)N(CCN(C)C)Cc3ccccc3Cl)cccc2C1 | criterion met
CN(C)CCN(Cc1ccccc1)C(=O)CNc1cccc2c1CCN(C(=O)CC1CCCCC1)C2 | criterion not met
CN(C)CCN(Cc1ccc(Cl)cn1)C(=O)CNc1cccc2c1CCN(CC1CC1)C2 | criterion met
O=C(CNc1cccc2c1CCN(CC1CC1)C2)N(CCN1CCNCC1)Cc1ccccc1C(F)(F)F | criterion met
O=C(CNc1cccc2c1CCN(CC1CC1)C2)N(Cc1ccccc1C(F)(F)F)CC1(O)CCCC1 | criterion met
CCOC(=O)[C@@H]1C[C@H]1CN(Cc1ccccc1C(F)(F)F)C(=O)CNc1cccc2c1CCN(CC1CC1)C2 (racemic) | criterion not met
CC(C)CC(=O)N1CCc2c(cccc2NCC(=O)N(CCN(C)C)Cc2ccccc2)C1 | criterion not met
CN(C)CCN(Cc1ccccc1)C(=O)CNc1cccc2c1CCN(CC1CC1)C2 | criterion met
CN(C)CCN(Cc1ccccc1)C(=O)CNc1cccc2c1CCN(C(=O)Oc1ccccc1)C2 | criterion not met
CC(O)CN(Cc1ccccc1C(F)(F)F)C(=O)CNc1cccc2c1CCN(CC1CC1)C2 (racemic) | criterion met
CN(C)CCN(Cc1ccccc1Cl)C(=O)CCc1cccc2c1CCN(CC1CC1)C2 | criterion met
CNCCN(Cc1ncccc1C(F)(F)F)C(=O)CNc1cccc2c1CCN(C(=O)OCCOC)C2 | criterion not met
CNC(=O)N1CCc2cccc(NCC(=O)N(CCN(C)C)Cc3ccccc3C(F)(F)F)c2C1 | criterion met

----------
- tested-on: UniProtKB P25106
- test: PathHunter CHO-K1 CXCR7 b-arrestin recruitment assay (CXCR7 agonistic activity)
- measurement-parameters: PathHunter CHO-K1 CXCR7 b-arrestin cell line
The entries below are paired with their reported EC50.

compound | EC50 / nM
CCN(CC)CCN(Cc1ccccc1)C(=O)CNc1cccc2c1CN(CC)CC2 [compound 490] | 21
CN(C)CCN(Cc1ccccc1C(F)(F)F)C(=O)CNc1cccc2c1CN(C)CC2 [compound 564] | 17
COCCN1CCc2c(/C=C/C(=O)N(Cc3ccccc3C(F)(F)F)CC(O)COC)cccc2C1 (stereo not shown) [Example 321] | 244
C=CCN(C)CCN(Cc1ccccc1C(F)(F)F)C(=O)CNc1cccc2c1CCN(CC1CC1)C2 [Example 245] | 3
CC(C)CCN(Cc1ccccc1)C(=O)CNc1cccc2c1CCN(C)C2 [compound 132] | 130
CCN1CCc2cccc(NCC(=O)N(CCN(C)C)Cc3nccs3)c2C1 [compound 541] | 175
COCCN1CCc2c(/C=C/C(=O)N(CCN(C)C)Cc3ccccc3C(F)(F)F)cccc2C1 [Example 317] | 5
CN(C)CCN(Cc1ccccc1C(F)(F)F)C(=O)CNc1cccc2c1CCN(C1CCOC1)C2 (racemic) [Example 351] | 34
CN(C)CCN(Cc1ccccc1C(F)(F)F)C(=O)CNc1cccc2c1CCN(C(=O)[C@@H]1C[C@@H]1F)C2 (single isomer, unassigned) [Example 363b] | 5
COCCN1CCc2c(/C=C/C(=O)N(Cc3ccccc3)C3CCS(=O)(=O)C3)cccc2C1 (stereo not shown) [Example 316] | 370
CC(C)CN1Cc2cccc(NCC(=O)N(CCN(C)C)Cc3ccccc3C(F)(F)F)c2CC1=O [Example 312] | 37
CN(C)CCN(Cc1ccccc1C(F)(F)F)C(=O)CNc1c(Cl)ccc2c1CCN(CC1CC1)C2 [Example 88] | 11
O=C(CNc1cccc2c1CCN(CC1CC1)C2)N(Cc1ccccc1C(F)(F)F)C1CCNC1 (racemic) [compound 381] | 9
CN(C)CCN(Cc1ccccc1C(F)(F)F)C(=O)/C=C/c1cccc2c1CCN(CC1CC1)C2 [compound 150] | 1
CN(C)CCN(Cc1ccc(OC(F)(F)F)cc1)C(=O)CNc1cccc2c1CCN(CC1CC1)C2 [Example 228] | 117
O=C(CNc1cccc2c1CN(CC1CC1)CC2)N(CCN1CCC(F)(F)C1)Cc1ccccc1C(F)(F)F [compound 479] | 78
